# melting point annotations

Some molecules with recorded melting point:
- molecule: "OCc1cnc2sc3ccccc3n12"
  melting point: "183 to 184 °C"
- molecule: "O=C(O)c1ccc(OCCCCCCO)cc1F"
  melting point: "98 to 99 °C"
- molecule: "COc1cc(SCCCc2ccc(-c3ccc(CCCSc4ccc(OCC(=O)O)c(OC)c4)cc3)cc2)ccc1OCC(=O)O"
  melting point: "178 to 180 °C"

**Q:** Would you mind telling me what melting point value was observed for CCOC(=O)c1c(O)c2cnc(-c3ccccc3)nc2n(CC)c1=O ?
**A:** 177 to 180 °C

**Q:** Would you mind telling me what melting point value was observed for Cc1ccc(S(C)(=O)=O)c(S(=O)(=O)NC(C)(C)C)c1 ?
**A:** 129 to 133 °C

**Q:** Would you mind telling me what melting point value was observed for COc1ccc(-c2csc(Nc3ccc4ccccc4n3)n2)cc1OC ?
**A:** 257 to 259 °C

**Q:** Would you mind telling me what melting point value was observed for C[Si](C)(C)Nc1ccn([Si](C)(C)C)c(=O)n1 ?
**A:** 252 to 256 °C

**Q:** Would you mind telling me what melting point value was observed for CCCCCCCC(=O)N(C)Cc1cccc(-c2ccc(C=CC(=O)O)s2)c1 ?
**A:** 102 to 104 °C
